Cited source: a collection of fitness landscapes (doi:10.1016/j.celrep.2020.107928)

B1: Caulobacter ParB omega fusion; a variant is named by its letters at X, in order, B8GW30 (parent)
chain: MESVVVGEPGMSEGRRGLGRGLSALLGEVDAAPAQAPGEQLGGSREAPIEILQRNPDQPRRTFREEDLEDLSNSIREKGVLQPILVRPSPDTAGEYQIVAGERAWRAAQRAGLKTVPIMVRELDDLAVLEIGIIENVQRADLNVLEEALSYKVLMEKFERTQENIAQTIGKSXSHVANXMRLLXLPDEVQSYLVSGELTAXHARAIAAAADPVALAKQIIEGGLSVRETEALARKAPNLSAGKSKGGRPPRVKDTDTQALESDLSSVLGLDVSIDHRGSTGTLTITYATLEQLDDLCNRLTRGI

Variants of: B1
Experimental details: one-hybrid fitness for binding NBS DNA (the Noc-binding site; scaled: cognate 1, non-cognate 0); higher = stronger binding
Applied conditions: with NBS DNA site
Whole data set: some 81,000 sequences, median “one-hybrid fitness for binding NBS DNA” near -0.1, cut for the highest 2% near 0.36. The sample holds the highest values, similar sequences and a random draw of the others, so the mix is not that of the screen.
Reported property: one-hybrid fitness for binding NBS DNA

INPUT: If you can, please state the reported one-hybrid fitness for binding NBS DNA value of FEEV .
OUTPUT: ≤ 0.2

INPUT: Let us now turn to RQDR
OUTPUT: ≤ 0.2

INPUT: Let us now turn to NVIT
OUTPUT: ≤ 0.2

INPUT: Let us now turn to ACDR
OUTPUT: ≤ 0.2

INPUT: Let us now turn to QQSD
OUTPUT: ≤ 0.2

INPUT: Let us now turn to GLGG
OUTPUT: ≤ 0.2

INPUT: Let us now turn to QHVV
OUTPUT: ≤ 0.2

INPUT: Let us now turn to SFPV
OUTPUT: ≤ 0.2

INPUT: Let us now turn to PKES
OUTPUT: ≤ 0.2

INPUT: Let us now turn to RQPR
OUTPUT: ≤ 0.2

INPUT: Let us now turn to INQF
OUTPUT: ≤ 0.2

INPUT: Let us now turn to QQST
OUTPUT: 0.516

INPUT: Let us now turn to QELA
OUTPUT: ≤ 0.2

INPUT: Let us now turn to ARIY
OUTPUT: ≤ 0.2

INPUT: Let us now turn to QMKV
OUTPUT: 0.424

INPUT: Let us now turn to EELL
OUTPUT: ≤ 0.2

INPUT: Let us now turn to RTHP
OUTPUT: ≤ 0.2

INPUT: Let us now turn to RGHT
OUTPUT: ≤ 0.2

INPUT: Let us now turn to QQCT
OUTPUT: 0.528

INPUT: Let us now turn to QTKV
OUTPUT: 0.599

INPUT: Let us now turn to AMAG
OUTPUT: ≤ 0.2

INPUT: Let us now turn to QHDV
OUTPUT: ≤ 0.2

INPUT: Let us now turn to RHHK
OUTPUT: ≤ 0.2

INPUT: Let us now turn to RSHT
OUTPUT: 0.402

INPUT: Let us now turn to RQNR
OUTPUT: 0.559

INPUT: Let us now turn to QQCN
OUTPUT: ≤ 0.2

INPUT: Let us now turn to QSVV
OUTPUT: ≤ 0.2

INPUT: Let us now turn to PSKA
OUTPUT: ≤ 0.2

INPUT: Let us now turn to NETT
OUTPUT: ≤ 0.2

INPUT: Let us now turn to RQND
OUTPUT: ≤ 0.2
